// Antibacterial activity (MIC) E. cloacae ATCC 13047 lookup, one value per entry
# Tested on: E. cloacae ATCC 13047
# testProtocol: Antibacterial activity (MIC, broth dilution)
# Assay type: cell-based
# conditions: CLSI
# Method: Determination of the Minimal Inhibitory Concentrations (MIC) by dilution was carried out by broth dilution according to CLSI standards.

# example entries with known answers
[[record]]
compound = "CCc1ccc(-c2cc(/C=C/C=C/c3ccc(N(C)C)cc3)[o+]c(-c3ccc(CC)cc3)c2)cc1.F[B-](F)(F)F [6jc64-2]"
measuredresult = "≥ 64 µg/mL"

[[record]]
compound = "CCc1ccc(-c2cc(/C=C/c3c[nH]c4ccccc34)[o+]c(-c3ccc(CC)cc3)c2)cc1.F[B-](F)(F)F [6jc64-3]"
measuredresult = "64 µg/mL"

[[record]]
compound = "C(=C\\c1cc(-c2ccccc2)cc(-c2ccccc2)[o+]1)/c1cc2c3c(c1)CCCN3CCC2.F[B-](F)(F)F [6jc-58]"
measuredresult = "64 µg/mL"

[[record]]
compound = "Cc1ccc(-c2cc(/C=C/C=C/c3ccc(N(C)C)cc3)[o+]c(-c3ccc(C)cc3)c2)cc1.F[B-](F)(F)F [6jc51-2]"
measuredresult = "≥ 64 µg/mL"

[[record]]
compound = "CN(C)c1ccc(/C=C/c2cc(-c3ccc(Br)cc3)cc(-c3ccc(Br)cc3)[o+]2)cc1 [6jc48-1]"
measuredresult = "≥ 64 µg/mL"

[[record]]
compound = "Cc1ccc(-c2cc(/C=C/c3c[nH]c4ccccc34)[o+]c(-c3ccc(C)c(C)c3)c2)cc1C.F[B-](F)(F)F [6jc-59-3]"
measuredresult = "≥ 64 µg/mL"


Reported E. cloacae ATCC 13047 Antibacterial activity (MIC) E. cloacae ATCC 13047 for item CN(C)c1ccc(/C=C/C=C/c2cc(-c3ccccc3)cc(-c3ccccc3)[o+]2)cc1.F[B-](F)(F)F [6jc43-1] was ≥ 64 µg/mL

Attribution: paper PMC5077133
